# study_system: RXRβ (Mus musculus, UniProt P28704)
# Sequence (P28704 1-520): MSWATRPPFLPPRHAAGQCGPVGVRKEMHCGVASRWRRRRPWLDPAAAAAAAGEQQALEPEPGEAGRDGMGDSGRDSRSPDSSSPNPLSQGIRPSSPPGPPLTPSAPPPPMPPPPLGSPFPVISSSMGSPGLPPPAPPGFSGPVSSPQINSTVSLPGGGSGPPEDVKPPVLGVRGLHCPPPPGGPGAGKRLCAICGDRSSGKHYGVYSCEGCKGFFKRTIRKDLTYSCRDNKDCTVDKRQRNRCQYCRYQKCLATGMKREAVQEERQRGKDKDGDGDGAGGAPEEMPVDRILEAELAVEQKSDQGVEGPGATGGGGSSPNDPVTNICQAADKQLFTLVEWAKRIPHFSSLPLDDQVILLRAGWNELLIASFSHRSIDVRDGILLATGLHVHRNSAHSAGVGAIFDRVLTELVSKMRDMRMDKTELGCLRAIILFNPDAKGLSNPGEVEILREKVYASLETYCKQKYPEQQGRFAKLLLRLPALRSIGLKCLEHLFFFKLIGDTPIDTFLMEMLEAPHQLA
# protocol_text: Co-transfection assay, RXRβ agonist activity
# applied_conditions: CV-1 cells, 40 hours, read-out: Potency (EC50) RXRβ
I'd be grateful if you could share measured EC50 for these entries.
Enter your answer as a number in nM; do not include the unit.

IN: Quick check: EC50 of CC(/C=C/C=C(\C)c1ccc(C(C)(C)C)cc1)=C\C(=O)O [Compound 44] ?
OUT: 21

IN: // EC50 lookup, key: CCc1cc(C)c(\C(C)=C/C=C/C(C)=C/C(=O)O)cc1CC [Compound 54]
OUT: 28

###

I'd be grateful if you could share measured pEC50 for these entries.
# study_system: RXRα (Homo sapiens, UniProt P19793)
# Sequence (P19793 whole entry): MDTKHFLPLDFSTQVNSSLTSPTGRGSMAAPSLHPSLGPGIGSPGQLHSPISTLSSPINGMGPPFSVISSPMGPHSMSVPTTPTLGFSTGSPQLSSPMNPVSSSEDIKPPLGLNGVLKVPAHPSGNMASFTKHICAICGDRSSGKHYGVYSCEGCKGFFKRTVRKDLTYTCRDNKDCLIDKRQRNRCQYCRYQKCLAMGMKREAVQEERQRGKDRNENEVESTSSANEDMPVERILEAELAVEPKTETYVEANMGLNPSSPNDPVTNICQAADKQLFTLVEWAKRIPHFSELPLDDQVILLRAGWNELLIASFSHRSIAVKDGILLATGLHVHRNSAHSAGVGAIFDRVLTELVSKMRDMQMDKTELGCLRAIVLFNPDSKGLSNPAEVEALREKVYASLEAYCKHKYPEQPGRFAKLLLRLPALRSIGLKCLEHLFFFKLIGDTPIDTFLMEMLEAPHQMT
# protocol_text: Co-transfection assay, RXRα agonist activity
# applied_conditions: CV-1 cells, 40 hours, read-out: Potency (EC50) RXRα
pEC50 field: float, defined as -log10 of concentration (mol/L).

IN: # returns recorded pEC50 (system: RXRα (Homo sapiens, UniProt P19793)) for CCc1cc(C)c(\C(C)=C/C=C/C(C)=C/C(=O)O)cc1CC
OUT: 7.24

IN: Give RXRα (Homo sapiens, UniProt P19793) pEC50 for CC(/C=C/C=C(\C)c1ccc(C(C)(C)C)cc1)=C\C(=O)O
OUT: 5.84

###

# study_system: RARα (Homo sapiens, UniProt P10276)
# Sequence (P10276 whole entry): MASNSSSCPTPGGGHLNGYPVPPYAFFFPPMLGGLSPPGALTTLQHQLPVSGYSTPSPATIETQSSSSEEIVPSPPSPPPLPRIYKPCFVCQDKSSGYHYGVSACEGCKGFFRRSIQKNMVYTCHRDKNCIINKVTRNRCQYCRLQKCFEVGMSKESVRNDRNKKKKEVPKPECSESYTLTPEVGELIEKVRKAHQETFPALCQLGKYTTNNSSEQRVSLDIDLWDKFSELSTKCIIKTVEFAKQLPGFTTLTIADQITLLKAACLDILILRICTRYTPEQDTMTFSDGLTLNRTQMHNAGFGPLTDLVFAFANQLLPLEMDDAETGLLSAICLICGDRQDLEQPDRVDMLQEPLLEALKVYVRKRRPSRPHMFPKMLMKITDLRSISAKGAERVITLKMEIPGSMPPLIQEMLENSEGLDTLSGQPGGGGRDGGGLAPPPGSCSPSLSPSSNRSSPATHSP
# protocol_text: Co-transfection assay, RARα agonist activity
# applied_conditions: CV-1 cells, 40 hours, read-out: Potency (EC50) RARα
measured_parameter: EC50 (nM)
Reply with just the number (in nM).

IN: Could you share which EC50 value was measured for CC(/C=C/C=C(\C)c1ccc(C(C)(C)C)cc1)=C\C(=O)O ?
OUT: 223

###

Please go through the items and note down their EC50.
# study_system: RARβ (Homo sapiens, UniProt P10826)
# Sequence (P10826 1-448 isoform P10826-2): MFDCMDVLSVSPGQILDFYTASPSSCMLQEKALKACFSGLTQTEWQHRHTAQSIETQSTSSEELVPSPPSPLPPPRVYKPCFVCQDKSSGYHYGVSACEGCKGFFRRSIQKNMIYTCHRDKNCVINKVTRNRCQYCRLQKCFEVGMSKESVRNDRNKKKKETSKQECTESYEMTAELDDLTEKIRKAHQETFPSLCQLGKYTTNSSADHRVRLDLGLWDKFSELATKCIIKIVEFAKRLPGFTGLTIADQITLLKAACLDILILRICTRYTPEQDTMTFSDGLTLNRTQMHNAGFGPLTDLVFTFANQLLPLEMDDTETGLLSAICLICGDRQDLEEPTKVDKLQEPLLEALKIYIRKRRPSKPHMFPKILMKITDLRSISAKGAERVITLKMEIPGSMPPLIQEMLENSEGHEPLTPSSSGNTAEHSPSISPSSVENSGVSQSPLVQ
# protocol_text: Co-transfection assay, RARβ agonist activity
# applied_conditions: CV-1 cells, 40 hours, read-out: Potency (EC50) RARβ
Give the value; after it, write the unit.

IN: Find EC50 (RARβ (Homo sapiens, UniProt P10826)) for the entry CCc1cc(C)c(\C(C)=C/C=C/C(C)=C/C(=O)O)cc1CC [Compound 54]
OUT: 130 nM

IN: Item: CC(/C=C/C=C(\C)c1ccc(C(C)(C)C)cc1)=C\C(=O)O [Compound 44] Test system: RARβ (Homo sapiens, UniProt P10826) Read-out: EC50 Value: ?
OUT: 37 nM

All values here come from patent US5721103A.
